Test: Inhibition of [3H]-SP radioligand binding to NK1 receptor from bovine retina
Experimental endpoint: IC50 (nM)
Write it as a number; the unit nM goes unstated.

Kindly note the recorded IC50 for `Cc1cc(C)cc(C(=O)N2CC[C@H](NCc3cnc4ccccc4c3)C[C@H]2Cc2ccccc2)c1` , which is 30

----------
Test: Compound was tested for inhibition of NK1 receptor from gerbil midbrain; NT means not tested
IC50 values for the compounds below.

The following compounds have reported results that may help.
>>> df
                              sample_smiles  measured_result
0  Cc1cc(C)cc(C(=O)N2CC[C@H](NCc3ccccc3)C[C@H]2Cc2ccccc2)c1           220 nM
1  O=C(c1cc(O)cc(O)c1)N1CC[C@H](NCc2ccnc3ccccc23)C[C@H]1Cc1ccccc1           520 nM
2  COc1cc(OC)cc(C(=O)N2CC[C@H](NCc3ccnc4ccccc34)C[C@H]2Cc2ccccc2)c1            92 nM
3  O=C(c1cc(Br)cc(Br)c1)N1CC[C@H](NCc2ccnc3ccccc23)C[C@H]1Cc1ccccc1            24 nM

Kindly note the recorded IC50 for `O=S(=O)(c1cc(C(F)(F)F)cc(C(F)(F)F)c1)N1CC[C@H](NCc2ccnc3ccccc23)C[C@H]1Cc1ccccc1` , which is > 10000 nM

Kindly note the recorded IC50 for `CC(C)NC(=O)N[C@H]1CCN(C(=O)c2cc(C(F)(F)F)cc(C(F)(F)F)c2)[C@H](Cc2ccccc2)C1` , which is 20 nM

Kindly note the recorded IC50 for `COc1cc(CC(=O)N[C@H]2CCN(C(=O)c3cc(C)cc(C)c3)[C@H](Cc3ccccc3)C2)cc(OC)c1` , which is 12 nM

Kindly note the recorded IC50 for `FC(F)(F)c1cc(CN2CC[C@H](NCc3ccnc4ccccc34)C[C@H]2Cc2ccccc2)cc(C(F)(F)F)c1` , which is 880 nM
